- Target Or System: Pancreatic elastase (Sus scrofa, UniProt P08419+P00772)
- Test Description: Compound is evaluated for the inhibition of porcine pancreatic (PP) elastase
- Type: protein
Reported Metric: Ki (µM)

COC(=O)CCC(=O)N[C@@H](C)C(=O)N[C@@H](C)C(=O)N1CCC[C@H]1C(=O)CN(C(=O)Oc1c(F)c(F)c(F)c(F)c1F)C(C)C | 35
COC(=O)CCC(=O)N[C@@H](C)C(=O)N[C@@H](C)C(=O)N1CCC[C@H]1C(=O)CN(C(=O)Oc1ccccc1)C(C)C | 31.5

1: COC(=O)CCC(=O)N[C@@H](C)C(=O)N[C@@H](C)C(=O)N1CCC[C@H]1C(=O)CN(C(=O)Sc1nnnn1C)C(C)C
2: COC(=O)CCC(=O)N[C@@H](C)C(=O)N[C@@H](C)C(=O)N1CCC[C@H]1C(=O)CN(C(=O)Oc1ccc([N+](=O)[O-])cc1)C(C)C
3: COC(=O)CCC(=O)N[C@@H](C)C(=O)N[C@@H](C)C(=O)N1CCC[C@H]1C(=O)CN(C(=O)OCC(F)(F)C(F)(F)C(F)(F)F)C(C)C
4: COC(=O)CCC(=O)N[C@@H](C)C(=O)N[C@@H](C)C(=O)N1CCC[C@H]1C(=O)CN(C(=O)Sc1nnnn1-c1ccccc1)C(C)C
## Input Give the ascending ranking of the items by reported Ki. Write the labels in rank order as requested.
## Output 4, 1, 2, 3
(4: 2.4 µM, 1: 19.5 µM, 2: 42.5 µM, 3: 82.1 µM)
